- Measured on: human CD28 (human, UniProt P10747 19-220)
- Measurement notes: cell-based or functional assay

Binder: 1h-239-856 (other) VL: DIQMTQSPSSLSASVGDRVTITCRASQSIYPFLEWYQQKPGKAPKLLIYFTSRLRHGVPSRFSGSGSGTDFTLTISSLQPEDFATYYCLQNVTNPATFSQGTKVEIKR
Unit: nM
MLR assay (EC50): 1

Binder: 1h-99-245 (other) VH: EVQLLESGGGLVQPGGSLRLSCAASGFTFDSANMSWARQAPGKGLEWVSWIEASGFQTFYADSVKGRFTISRDNSKNTLYLQMNSLRAEDTAVYYCAKSPFGPLYGFDYRGQGTLVTVSS
Unit: nM
MLR assay (EC50): 11
